The measured values listed here are drawn from ChEMBL document CHEMBL1201862.

test system: OVCAR-4; test: NCI tumour cell line growth inhibition, 48 h
Activity calls are given as the source filed them. No stated cut-off is given here; in the data, active = GI50 up to about 1.1 µM and inactive = higher.
Parameter: GI50

response.value for C/C(CC(=O)Nc1ccc(Cl)c(Cl)c1)=N/NC(=O)C[N+](C)(C)C (field: GI50) = > 100 µM (inactive)

response.value for O=C(CC1(O)C(=O)Nc2c(Cl)cc(Cl)cc21)c1ccc([N+](=O)[O-])cc1 (stereo not given) (field: GI50) = 17.5 µM (inactive)

response.value for N#Cc1c2c(c(N=[N+]=[N-])n3c1nc1ccccc13)CCCC2 (field: GI50) = 2.49 µM (inactive)

response.value for Cn1c(N/N=C/c2ccccc2)nc(-c2ccc([N+](=O)[O-])cc2)c(C#N)c1=O (field: GI50) = 29 µM (inactive)

response.value for O=C1/C(=C\c2cccs2)Oc2ccccc21 (field: GI50) = 31.5 µM (inactive)

response.value for CC1=C/C(=C(/c2ccc(O)c(C)c2)c2ccccc2C(=O)O)C=CC1=O (field: GI50) = 18.1 µM (inactive)

response.value for COc1ccccc1[C@@H]1CCC2CC[C@@H](c3ccccc3OC)[N+]21Cc1ccccc1 (stereo not given in full) (field: GI50) = 1.64 µM (inactive)

response.value for O=[N+]([O-])c1ccc2nc(/C(=N/Nc3ccccc3)C(O)c3ccc(Cl)cc3Cl)c(O)nc2c1 (stereo not given) (field: GI50) = > 100 µM (inactive)

response.value for CCOC(=O)C(=Cc1cccnc1C)C(=O)OCC (field: GI50) = 11 µM (inactive)

response.value for N#C/N=C1\NCCC(=O)N1CCc1c[nH]c2ccccc12 (field: GI50) = > 100 µM (inactive)

response.value for Cc1cn([C@@H]2C[C@](C)(CO)N(C)O2)c(=O)[nH]c1=O (field: GI50) = > 100 µM (inactive)

response.value for COc1ccc(-c2nnc(CCCCCCCCc3nnc(-c4ccc(OC)cc4)o3)o2)cc1 (field: GI50) = > 100 µM (inactive)

response.value for CCCCCCCCCC[C@H](O)[C@H]1CC[C@H]([C@H]2CC[C@H]([C@H](O)CC[C@H](O)CCCCCCC[C@@H](O)CC3=C[C@H](C)OC3=O)O2)O1 (field: GI50) = 41.4 µM (inactive)

response.value for N#CCN1c2ccccc2CCC1Cl (stereo not given) (field: GI50) = > 10 µM (inactive)

response.value for CC(CCOc1ccc2ccc(=O)oc2c1)C1=CC(=O)C(C)(C)O1 (stereo not given) (field: GI50) = 5.73 µM (inactive)

response.value for CC(=O)OCC1OC(n2c3c(c(-c4ccco4)c(C#N)c2=S)CCCC3)C(OC(C)=O)C(OC(C)=O)C1OC(C)=O (stereo not given) (field: GI50) = 9.16 µM (inactive)

response.value for Cc1ccc(S(=O)(=O)OCC23CCC(CC2)C2CC23)cc1 (stereo not given) (field: GI50) = 46 µM (inactive)

response.value for CN1Cc2c(ccc3c2OCO3)[C@@H]2[C@H](O)Cc3cc4c(cc3[C@@H]21)OCO4 (field: GI50) = > 86.7 µM (inactive)

response.value for N#Cc1ccc(C2Oc3ccc(Cl)cc3C=C2[N+](=O)[O-])cc1 (stereo not given) (field: GI50) = 1.79 µM (inactive)

response.value for O=c1cc(/N=N\c2ccc(Cl)cc2)[nH]c(=O)[nH]1 (field: GI50) = 4.42 µM (inactive)

---

For each entry below, report its GI50 value.
system: DLD-1; assay: NCI tumour cell line growth inhibition, 48 h
Activity calls are given as the source filed them. Cut-off read from the data, not from the text of the source: active = GI50 up to about 1.1 µM and inactive = higher.

Readout GI50 for COc1cc2c(c(OC)c1OC)C(=O)NCCC2 , test system DLD-1, was > 100 µM (inactive)

Readout GI50 for CC(=O)NC1C(OCc2ccccc2)OC(COC(=O)CCCCCCCCCCNC(=O)c2cccc3c(=O)c4ccccc4[nH]c23)C(O)C1OC(C)C(=O)NC(C)C(=O)NC(CCC(N)=O)C(N)=O (stereo not given) , test system DLD-1, was 95.9 µM (inactive)

Readout GI50 for CCCN1C(=O)C/C(=C\C(C)=O)Nc2ccccc21 , test system DLD-1, was > 100 µM (inactive)

Readout GI50 for N#C[C@H](OC1OC(COC2OC(CO)C(O)C(O)C2O)C(O)C(O)C1O)c1ccccc1 (stereo not given in full) , test system DLD-1, was > 250 µM (inactive)

Readout GI50 for CCCCOC(=O)NC(=O)c1cn(C2CCCCC2)c(=O)[nH]c1=O , test system DLD-1, was 36.9 µM (inactive)

Readout GI50 for CCOC(OC1=C(C#N)CCCC1)C(C)[Se]c1ccccc1 (stereo not given) , test system DLD-1, was 36.2 µM (inactive)

Readout GI50 for N#CC12CCC1C1CCCCC12N1CCSCC1 (stereo not given) , test system DLD-1, was > 100 µM (inactive)

Readout GI50 for CCc1cccc(C)c1NC(=O)CC1C(=O)Nc2ccccc2[S+]1[O-] (stereo not given) , test system DLD-1, was 47.6 µM (inactive)

Readout GI50 for Cc1ccc(NC(=O)CC2C(=O)Nc3ccccc3[S+]2[O-])c(C)c1 (stereo not given) , test system DLD-1, was 15.3 µM (inactive)

Readout GI50 for O=C1C=CC(=O)c2cc(Sc3ccccc3)c(=O)ccc21 , test system DLD-1, was 13.6 µM (inactive)

---

For each entry below, report its GI50 value.
tested on: SNB-75; experiment: NCI tumour cell line growth inhibition, 48 h
Calls of active or inactive are those of the source. No stated cut-off is given here; in the data, active = GI50 up to about 1.1 µM and inactive = higher.

response.value for COC1OC2COC(C)(C)OC2C(OC(C)=O)C1NC(=O)N(CCCl)N=O (centres undefined) (field: GI50) = 29.1 µM (inactive)

response.value for CC(=O)N1c2ccccc2[C@H]2CCc3c([nH]c4ccccc34)[C@H]21 (field: GI50) = 18.4 µM (inactive)

response.value for O=C(c1ccccc1)c1oc2ccc(Br)cc2c1-c1cnn(-c2ccccc2)c1 (field: GI50) = > 100 µM (inactive)

response.value for O=C(O)C1CCN(Cc2oc(CO)cc(=O)c2O)C1 (centres undefined) (field: GI50) = > 100 µM (inactive)

response.value for CCCCCC(C)SC1(C(=O)OC)CC(OC(C)=O)C(NC(C)=O)C([C@H](OC(C)=O)[C@@H](COC(C)=O)OC(C)=O)O1 (some centres undefined) (field: GI50) = > 100 µM (inactive)

response.value for C=C(C)[C@@]1(O[Si](C)(C)C)CCCC[C@@H]1CC(Sc1ccccc1)Sc1ccccc1 (field: GI50) = 12.1 µM (inactive)

response.value for COc1c(C)c(C/C=C(\C)CC/C=C(\C)CCC=C(C)C)c(OC)c(OC)c1OC (field: GI50) = > 100 µM (inactive)

response.value for COc1cc2c(cc1O)CN1CCC23C=C[C@@H](O)CC13 (some centres undefined) (field: GI50) = 59.4 µM (inactive)

response.value for [N-]=[N+]=NC1C(Br)C(=O)NC(=O)N1[C@H]1C[C@H](O)[C@@H](CO)O1 (some centres undefined) (field: GI50) = > 100 µM (inactive)

---

For each entry below, report its GI50 value.
tested on: MDA-MB-435; assay: NCI tumour cell line growth inhibition, 48 h
Calls of active or inactive are those of the source. No stated cut-off is given here; in the data, active = GI50 up to about 1.1 µM and inactive = higher.

Readout GI50 for COc1ccc(-c2nnc(CCCCCCCCc3nnc(-c4ccc(OC)cc4)o3)o2)cc1 , test system MDA-MB-435, was > 100 µM (inactive)

Readout GI50 for COc1ccc(-c2c(C(C)=O)c(C)n(C3OC(COC(C)=O)C(OC(C)=O)C(OC(C)=O)C3OC(C)=O)c(=S)c2C#N)cc1 (stereo not given) , test system MDA-MB-435, was > 100 µM (inactive)

Readout GI50 for C=C(CC(=O)Nc1ccc(C(=O)OC)o1)C(=O)OC , test system MDA-MB-435, was 17.8 µM (inactive)

Readout GI50 for COC(=O)C(CC(C)C)NC(=O)C(NC(=O)c1ccc(-c2ccc(Cl)cc2Cl)o1)C(C)C (stereo not given) , test system MDA-MB-435, was 22.1 µM (inactive)

Readout GI50 for CC(O)CCNC(=O)Nc1c(C(F)(F)F)cc(-c2ccccc2)[nH]c1=O (stereo not given) , test system MDA-MB-435, was > 100 µM (inactive)

---

For each entry below, report its GI50 value.
test system: SNB-75; test: NCI tumour cell line growth inhibition, 48 h
Calls of active or inactive are those of the source. Cut-off read from the data, not from the text of the source: active = GI50 up to about 1.1 µM and inactive = higher.

Readout GI50 for CC(=O)Oc1ccc(-c2cc3ccccc3oc2=O)cc1OC(C)=O , test system SNB-75, was 26.9 µM (inactive)

Readout GI50 for COc1cccc(NCC(=O)Nn2c(-c3ccccc3)nc3ccccc3c2=O)c1 , test system SNB-75, was > 100 µM (inactive)

Readout GI50 for Cn1c(CC(O)c2nc3ccccc3n2C)nc2ccccc21 (stereo unspecified) , test system SNB-75, was > 100 µM (inactive)

Readout GI50 for CCCCCCCCCCCCCC(=O)OC1C(O)C(CO)OC(OC)C1NC(=O)N(CCCl)N=O (stereo unspecified) , test system SNB-75, was 38.6 µM (inactive)

Readout GI50 for COc1cccc(NC(=O)/C(Cc2nc3ccccc3nc2C)=N/NC(=O)C[n+]2ccccc2)c1 , test system SNB-75, was > 100 µM (inactive)

Readout GI50 for COc1ccc(-c2nnc(CCCCCCCCc3nnc(-c4ccc(OC)cc4)o3)o2)cc1 , test system SNB-75, was 27 µM (inactive)

Readout GI50 for CC1(C)COC2=C(C1)C(=O)c1ccccc1C2=O , test system SNB-75, was 1.63 µM (inactive)

Readout GI50 for COC(=O)/N=[N+](\[O-])C(c1ccc(OC)cc1)C1CCCCC1 (stereo unspecified) , test system SNB-75, was 5.22 µM (inactive)

Readout GI50 for SC1=Nc2ccccc2-c2nc(-c3ccccc3)cc(-c3ccc(Br)cc3)c2C1 , test system SNB-75, was 1.26 µM (inactive)

Readout GI50 for c1cncc(O[Si](Oc2cccnc2)(Oc2cccnc2)Oc2cccnc2)c1 , test system SNB-75, was > 100 µM (inactive)

Readout GI50 for N#Cc1c2ccccc2cn1-c1ccc(F)cc1 , test system SNB-75, was 2.61 µM (inactive)
